Data origin: patent EP1655287A1

# Tested System: senile plaques (Homo sapiens, UniProt P05067)
# Construct: The former has, as the main component, amyloid β-protein (Aβ protein) taking β-sheet structures; from tissue; host or cells: paraffin-embedded temporal lobe or hippocampus sections of an Alzheimer's disease patient's brain (Fukushimura Hospital)
# Sequence (P05067 672-713 limits assumed): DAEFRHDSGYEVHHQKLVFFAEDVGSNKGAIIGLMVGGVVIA
# Assay Explanation: Staining of senile plaques and diffuse plaques in brain sections, compared with thioflavin S, BSB or anti-Aβ antibody 6F/3D immunostaining
# Assay type: binding, patient with Alzheimer's disease
# Measurement Setup: 100 µM compound in 50% ethanol; adjacent sections immunostained with 6F/3D
Parameter Measured: staining properties compared with immunostaining of anti-Aβ antibody 6F/3D

[
  {
    "Compound": "CN(C)c1ncc(/C=C/c2nc3ccccc3s2)s1 [BF-196]",
    "Tested System": "senile plaques (Homo sapiens, UniProt P05067)",
    "Readout Value": "stains senile plaques"
  },
  {
    "Compound": "Nc1ccc(/C=C/C=C/c2nc3ccc(O)cc3o2)c(O)c1 [BF-201]",
    "Tested System": "senile plaques (Homo sapiens, UniProt P05067)",
    "Readout Value": "stains senile plaques"
  },
  {
    "Compound": "CN(C)c1ncc(/C=C/c2nc3ccccc3o2)s1 [BF-197]",
    "Tested System": "senile plaques (Homo sapiens, UniProt P05067)",
    "Readout Value": "stains senile plaques"
  }
]
